ASSAYED SYSTEM: p110γ (Homo sapiens, UniProt P48736)
Sequence (P48736 whole entry): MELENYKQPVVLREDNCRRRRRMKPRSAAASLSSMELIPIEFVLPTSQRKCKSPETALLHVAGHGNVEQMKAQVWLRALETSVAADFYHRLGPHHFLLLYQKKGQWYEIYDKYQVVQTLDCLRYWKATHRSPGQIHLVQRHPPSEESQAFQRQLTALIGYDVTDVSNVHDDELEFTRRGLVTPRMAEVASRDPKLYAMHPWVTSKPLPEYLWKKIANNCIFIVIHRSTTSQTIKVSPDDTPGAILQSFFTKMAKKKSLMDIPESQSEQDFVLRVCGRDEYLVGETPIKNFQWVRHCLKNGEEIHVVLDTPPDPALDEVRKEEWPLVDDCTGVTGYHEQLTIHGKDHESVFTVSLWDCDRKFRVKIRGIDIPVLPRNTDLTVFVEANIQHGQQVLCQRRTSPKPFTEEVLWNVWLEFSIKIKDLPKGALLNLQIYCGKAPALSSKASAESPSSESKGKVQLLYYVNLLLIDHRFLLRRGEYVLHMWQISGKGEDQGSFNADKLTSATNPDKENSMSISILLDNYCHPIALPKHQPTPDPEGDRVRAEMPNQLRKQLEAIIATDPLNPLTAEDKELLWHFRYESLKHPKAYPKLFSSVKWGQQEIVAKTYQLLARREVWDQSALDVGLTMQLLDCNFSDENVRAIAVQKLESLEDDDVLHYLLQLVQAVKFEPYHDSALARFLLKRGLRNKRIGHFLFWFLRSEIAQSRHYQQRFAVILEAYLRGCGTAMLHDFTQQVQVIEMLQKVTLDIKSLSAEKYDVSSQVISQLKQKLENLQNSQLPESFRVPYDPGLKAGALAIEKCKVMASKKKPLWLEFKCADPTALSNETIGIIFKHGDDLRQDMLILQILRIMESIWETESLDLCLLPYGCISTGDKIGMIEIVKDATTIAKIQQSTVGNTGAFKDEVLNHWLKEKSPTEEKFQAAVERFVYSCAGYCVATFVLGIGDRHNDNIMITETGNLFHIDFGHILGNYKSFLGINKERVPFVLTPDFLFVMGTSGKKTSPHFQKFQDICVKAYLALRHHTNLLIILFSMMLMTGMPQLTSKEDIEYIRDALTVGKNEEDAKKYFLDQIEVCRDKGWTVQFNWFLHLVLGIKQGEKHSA
RUN DESCRIPTION: Transcreener KINASE Assay, kinase inhibition of p110γ
Assay type: biochemical
EXPERIMENTAL CONTEXT: 1 uM test compound
READOUT KIND: PI3Kγ IH % @ 1 uM

INSERT INTO results (molecule, result) VALUES
  ('N#Cc1c[nH]c2ncnc(N3C[C@H](F)C[C@H]3c3nn4ccc(Cl)c4c(=O)n3-c3ccccc3)c12', '86.1%'),
  ('O=c1c2c(Cl)ccn2nc([C@@H]2CCN2c2ncnc3[nH]cc(C4=NCCO4)c23)n1-c1ccccc1', '97.6%'),
  ('CC(=O)c1c(N)nc(N)nc1N1C[C@H](C)C1c1nn2ccc(Cl)c2c(=O)n1-c1cccc(F)c1 (stereo partly drawn)', '>100%'),
  ('CC(Nc1ncnc2[nH]cc(C#N)c12)c1cc2ccc(Cl)n2c(=O)n1-c1cccc(F)c1 (stereo not drawn)', '96.2%'),
  ('N#Cc1c[nH]c2ncnc(N3CCC[C@H]3c3nn4ccc(Cl)c4c(=O)n3C3CCC3)c12', '97.7%'),
  ('O=c1c2c(Cl)ccn2nc([C@@H]2CCCN2c2ncnc3[nH]cnc23)n1Cc1ccccn1', '73.8%'),
  ('CC(Nc1ncnc2[nH]cc(C#N)c12)c1cc2c(Cl)cc(Cl)n2c(=O)n1-c1cccc(F)c1 (stereo not drawn)', '33.3%'),
  ('NC(=O)c1c[nH]c2ncnc(N3CC[C@H]3c3nn4ccc(Cl)c4c(=O)n3-c3ccccc3)c12', '0.6%'),
  ('N#Cc1cnc(N)nc1N1C[C@@H](F)C[C@H]1c1nn2ccc(F)c2c(=O)n1-c1ccccc1', '>100%'),
  ('C[S+]([O-])c1cnc(N)nc1N1CC[C@H]1c1nn2ccc(Cl)c2c(=O)n1-c1ccccc1 (stereo partly drawn)', '70.3%'),
  ('N#Cc1n[nH]c2ncnc(N3CCC[C@H]3c3nn4ccc(Cl)c4c(=O)n3-c3ccccc3)c12', '67.2%'),
  ('COCc1ccn2nc([C@@H]3CCCN3c3nc(N)ncc3C(F)(F)F)n(-c3ccccc3)c(=O)c12', '22.8%'),
  ('N#Cc1c(N)ncnc1N1CCC[C@H]1c1nn2ccc(Cl)c2c(=O)n1-c1ccccc1', '94.8%'),
  ('CO[C@@H]1C[C@@H](c2nn3ccc(Cl)c3c(=O)n2-c2ccccc2)N(c2ncnc3[nH]cnc23)C1', '49.5%'),
  ('Cc1ccn2nc([C@@H]3CCCN3c3ncnc(N)c3C#N)n(-c3ccccc3)c(=O)c12', '89.2%'),
  ('Cc1nc(N)nc(N2C[C@H](C)[C@H]2c2nn3ccc(Cl)c3c(=O)n2-c2ccccn2)c1C#N', '>100%'),
  ('Cc1nc(N)nc(N2CC[C@H]2c2nn3ccc(Cl)c3c(=O)n2-c2ccc(F)cc2)c1C#N', '94.6%'),
  ('Cc1ccn2nc([C@@H]3CCCN3c3ncnc(N)c3Cl)n(-c3ccccc3)c(=O)c12', '80.9%'),
  ('CN(C)CCn1c([C@@H]2CCCN2c2ncnc3[nH]cc(C#N)c23)nn2ccc(Cl)c2c1=O', '68.9%'),
  ('CC(=O)Nc1c[nH]c2ncnc(N3CCC[C@H]3c3nn4ccc(Cl)c4c(=O)n3-c3ccccc3)c12', '95.9%'),
  ('Cc1nc(N2CCC[C@H]2c2nn3ccc(F)c3c(=O)n2-c2ccccc2)c2nc[nH]c2n1', '>100%'),
  ('N#Cc1c[nH]c2ncnc(N3CCC[C@H]3c3nn4ccc(Cl)c4c(=O)n3-c3ccccc3)c12', '98.6%'),
  ('CC(Nc1ncnc2[nH]cnc12)c1cc2ccc(Cl)n2c(=O)n1-c1cccc(F)c1 (stereo not drawn)', '>100%'),
  ('Nc1ccc(-c2c[nH]c3ncnc(N4CC[C@H]4c4nn5ccc(Cl)c5c(=O)n4-c4ccccc4)c23)cn1', '>100%'),
  ('N#Cc1c[nH]c2ncnc(N3CC[C@H]3c3nn4ccc(Cl)c4c(=O)n3C3CCC3)c12', '65.7%'),
  ('O=c1c2c(Cl)ccn2nc([C@@H]2CCN2c2ncnc3[nH]ccc23)n1-c1ccccc1', '75.5%'),
  ('C[S+]([O-])c1c[nH]c2ncnc(N3CCC[C@H]3c3nn4ccc(Cl)c4c(=O)n3-c3ccccc3)c12 (stereo partly drawn) [Compound 188]', '>100%'),
  ('Nc1nc(N2CC[C@H]2c2nn3ccc(Br)c3c(=O)n2-c2ccccc2)n2nccc2n1', '>100%'),
  ('N#Cc1c[nH]c2ncnc(N3CC[C@H]3c3nn4ccc(Cl)c4c(=O)n3-c3ccc(F)cc3)c12', '83.3%'),
  ('CC(Nc1ncnc(N)c1C#N)c1cc2ccc(Cl)n2c(=O)n1-c1ccccc1 (stereo not drawn)', '94.0%');

----------
ASSAYED SYSTEM: p110β/p85α (Homo sapiens)
Sequence (P42338 whole entry): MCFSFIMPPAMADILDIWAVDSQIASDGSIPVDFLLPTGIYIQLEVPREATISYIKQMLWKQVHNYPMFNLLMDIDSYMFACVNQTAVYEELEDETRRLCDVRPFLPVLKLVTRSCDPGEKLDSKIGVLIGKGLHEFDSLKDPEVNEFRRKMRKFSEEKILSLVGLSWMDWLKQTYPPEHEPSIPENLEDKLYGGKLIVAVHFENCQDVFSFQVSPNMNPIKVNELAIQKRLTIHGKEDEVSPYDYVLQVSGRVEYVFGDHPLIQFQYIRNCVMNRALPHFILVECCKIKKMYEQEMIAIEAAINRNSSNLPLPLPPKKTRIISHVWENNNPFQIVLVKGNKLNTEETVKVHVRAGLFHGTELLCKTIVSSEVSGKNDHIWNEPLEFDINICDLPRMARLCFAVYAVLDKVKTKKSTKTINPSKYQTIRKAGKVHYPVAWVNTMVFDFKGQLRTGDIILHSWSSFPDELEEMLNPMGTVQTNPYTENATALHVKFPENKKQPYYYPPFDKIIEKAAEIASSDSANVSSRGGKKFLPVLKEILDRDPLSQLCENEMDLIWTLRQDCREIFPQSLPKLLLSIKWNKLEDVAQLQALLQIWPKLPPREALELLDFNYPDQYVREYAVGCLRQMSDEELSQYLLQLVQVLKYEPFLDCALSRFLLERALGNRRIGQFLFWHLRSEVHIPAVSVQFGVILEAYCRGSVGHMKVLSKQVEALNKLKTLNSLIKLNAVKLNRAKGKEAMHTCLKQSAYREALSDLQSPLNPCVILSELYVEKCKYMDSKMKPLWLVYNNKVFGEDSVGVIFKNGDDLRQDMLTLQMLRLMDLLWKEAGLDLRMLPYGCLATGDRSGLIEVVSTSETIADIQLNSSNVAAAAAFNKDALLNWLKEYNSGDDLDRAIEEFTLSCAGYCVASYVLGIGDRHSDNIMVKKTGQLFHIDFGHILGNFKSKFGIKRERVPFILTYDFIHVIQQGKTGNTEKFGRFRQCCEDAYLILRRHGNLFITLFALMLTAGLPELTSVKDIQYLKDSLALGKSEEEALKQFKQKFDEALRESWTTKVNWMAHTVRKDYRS
Sequence (P27986 2-724 partner): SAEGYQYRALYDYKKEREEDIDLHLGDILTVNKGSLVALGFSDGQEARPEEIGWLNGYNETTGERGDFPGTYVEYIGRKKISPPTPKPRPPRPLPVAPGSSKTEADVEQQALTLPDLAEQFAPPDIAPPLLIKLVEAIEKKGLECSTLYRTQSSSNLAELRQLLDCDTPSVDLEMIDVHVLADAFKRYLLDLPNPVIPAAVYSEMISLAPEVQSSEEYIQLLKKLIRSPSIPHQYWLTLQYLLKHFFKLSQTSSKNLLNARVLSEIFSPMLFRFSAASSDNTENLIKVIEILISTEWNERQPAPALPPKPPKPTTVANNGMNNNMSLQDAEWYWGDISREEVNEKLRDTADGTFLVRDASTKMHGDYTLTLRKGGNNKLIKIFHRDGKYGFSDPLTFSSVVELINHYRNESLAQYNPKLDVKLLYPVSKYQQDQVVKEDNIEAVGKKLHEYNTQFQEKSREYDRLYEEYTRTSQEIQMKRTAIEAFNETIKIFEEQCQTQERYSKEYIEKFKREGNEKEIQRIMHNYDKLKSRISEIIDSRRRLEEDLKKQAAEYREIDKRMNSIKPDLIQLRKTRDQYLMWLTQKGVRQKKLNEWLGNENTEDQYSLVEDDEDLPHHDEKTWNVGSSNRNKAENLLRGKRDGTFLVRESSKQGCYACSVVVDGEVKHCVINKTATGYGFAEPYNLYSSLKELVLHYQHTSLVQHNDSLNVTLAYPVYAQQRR
RUN DESCRIPTION: Transcreener KINASE Assay, kinase inhibition of p110β/p85α
EXPERIMENTAL CONTEXT: read-out: PI3Kβ IC50
pIC50: −log10 of the molar value.
Classify as follows. Reported pIC50 greater than or equal to 7: satisfied. Reported pIC50 below: not satisfied.

INSERT INTO measurements (molecule, group_label) VALUES
  ('CC(Nc1ncnc2[nH]cc(C#N)c12)c1cn2ccc(Cl)c2c(=O)n1-c1ccccc1 (stereo not shown) [Compound 88]', 'satisfied'),
  ('Nc1ncc(-c2c[nH]c3ncnc(N4CC[C@H]4c4nn5ccc(F)c5c(=O)n4-c4ccccc4)c23)cn1 [Compound 180]', 'satisfied'),
  ('CC(Nc1nc(N)nc2c1C(=O)CCN2)c1cn2ccc(Cl)c2c(=O)n1-c1ccccc1 (stereo not shown) [Compound 275]', 'satisfied'),
  ('CC(=O)c1c(N)nc(N)nc1N1C[C@H](C)C1c1nn2ccc(Cl)c2c(=O)n1-c1cccc(F)c1 (stereo partly shown) [Compound 493]', 'not satisfied'),
  ('CC(=O)c1cnc(N)nc1N1C[C@H](C)[C@H]1c1nn2ccc(Cl)c2c(=O)n1-c1cccc(F)c1 [Compound 467]', 'not satisfied');

----------
ASSAYED SYSTEM: p110γ (Homo sapiens, UniProt P48736)
RUN DESCRIPTION: Transcreener KINASE Assay, kinase inhibition of p110γ
Type: biochemical
EXPERIMENTAL CONTEXT: 1 uM test compound
Classify as follows. Reported PI3Kγ IH % @ 1 uM greater than or equal to 70%: MET. Reported PI3Kγ IH % @ 1 uM below: NOT MET.

INSERT INTO results (compound, group_label) VALUES
  ('N#C[C@H]1C[C@@H](c2nn3ccc(Cl)c3c(=O)n2-c2ccccc2)N(c2ncnc3[nH]cnc23)C1 [Compound 359]', 'MET'),
  ('C[C@H]1CN(c2nc(N)ncc2Cl)[C@@H]1c1nn2ccc(Cl)c2c(=O)n1-c1ccccc1 [Compound 465]', 'MET'),
  ('CC(=O)c1c[nH]c2ncnc(N[C@H](C)c3cn4ccc(F)c4c(=O)n3-c3ccccc3)c12 [Compound 405]', 'MET'),
  ('CC(Nc1ncnc2[nH]cc(F)c12)c1cc2ncc(Cl)n2c(=O)n1-c1ccccc1 (stereo not shown) [Compound 285]', 'MET'),
  ('O=c1c2c(Cl)ccn2nc([C@@H]2CCN2c2nc(N3CCOCC3)nc3[nH]cnc23)n1-c1ccccc1 [Compound 114]', 'NOT MET'),
  ('CS(=O)(=O)CCn1c([C@@H]2CCCN2c2ncnc3[nH]cnc23)nn2ccc(Cl)c2c1=O [Compound 372]', 'MET');

----------
Entries and their pIC50
ASSAYED SYSTEM: p110δ/p85α (Homo sapiens)
Sequence (O00329 whole entry): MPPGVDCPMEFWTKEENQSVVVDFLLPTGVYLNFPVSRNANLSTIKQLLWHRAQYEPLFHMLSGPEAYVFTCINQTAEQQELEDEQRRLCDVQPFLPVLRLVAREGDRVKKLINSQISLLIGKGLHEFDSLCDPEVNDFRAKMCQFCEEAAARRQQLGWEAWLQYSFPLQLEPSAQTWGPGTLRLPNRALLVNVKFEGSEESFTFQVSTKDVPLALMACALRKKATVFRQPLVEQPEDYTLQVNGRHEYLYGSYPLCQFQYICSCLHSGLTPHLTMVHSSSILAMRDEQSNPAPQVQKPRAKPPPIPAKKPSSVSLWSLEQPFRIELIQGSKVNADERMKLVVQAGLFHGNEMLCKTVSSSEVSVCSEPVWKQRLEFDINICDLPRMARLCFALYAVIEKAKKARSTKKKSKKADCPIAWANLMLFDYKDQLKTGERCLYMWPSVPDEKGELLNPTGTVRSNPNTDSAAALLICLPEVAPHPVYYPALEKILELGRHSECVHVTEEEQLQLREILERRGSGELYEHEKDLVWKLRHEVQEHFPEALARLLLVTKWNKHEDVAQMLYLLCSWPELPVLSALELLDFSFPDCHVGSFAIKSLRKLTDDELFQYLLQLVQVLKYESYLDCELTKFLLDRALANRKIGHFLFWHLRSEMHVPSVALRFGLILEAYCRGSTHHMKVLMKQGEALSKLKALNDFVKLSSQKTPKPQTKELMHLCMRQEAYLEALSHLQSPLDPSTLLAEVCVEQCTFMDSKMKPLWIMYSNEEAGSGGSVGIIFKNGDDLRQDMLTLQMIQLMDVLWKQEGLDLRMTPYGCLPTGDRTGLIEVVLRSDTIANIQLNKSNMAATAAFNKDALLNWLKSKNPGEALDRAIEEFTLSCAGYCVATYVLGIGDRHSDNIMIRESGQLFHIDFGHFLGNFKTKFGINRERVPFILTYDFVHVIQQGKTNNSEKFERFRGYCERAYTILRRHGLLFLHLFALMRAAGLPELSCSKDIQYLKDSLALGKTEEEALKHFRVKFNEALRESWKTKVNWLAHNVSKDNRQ
Sequence (P27986 whole entry partner): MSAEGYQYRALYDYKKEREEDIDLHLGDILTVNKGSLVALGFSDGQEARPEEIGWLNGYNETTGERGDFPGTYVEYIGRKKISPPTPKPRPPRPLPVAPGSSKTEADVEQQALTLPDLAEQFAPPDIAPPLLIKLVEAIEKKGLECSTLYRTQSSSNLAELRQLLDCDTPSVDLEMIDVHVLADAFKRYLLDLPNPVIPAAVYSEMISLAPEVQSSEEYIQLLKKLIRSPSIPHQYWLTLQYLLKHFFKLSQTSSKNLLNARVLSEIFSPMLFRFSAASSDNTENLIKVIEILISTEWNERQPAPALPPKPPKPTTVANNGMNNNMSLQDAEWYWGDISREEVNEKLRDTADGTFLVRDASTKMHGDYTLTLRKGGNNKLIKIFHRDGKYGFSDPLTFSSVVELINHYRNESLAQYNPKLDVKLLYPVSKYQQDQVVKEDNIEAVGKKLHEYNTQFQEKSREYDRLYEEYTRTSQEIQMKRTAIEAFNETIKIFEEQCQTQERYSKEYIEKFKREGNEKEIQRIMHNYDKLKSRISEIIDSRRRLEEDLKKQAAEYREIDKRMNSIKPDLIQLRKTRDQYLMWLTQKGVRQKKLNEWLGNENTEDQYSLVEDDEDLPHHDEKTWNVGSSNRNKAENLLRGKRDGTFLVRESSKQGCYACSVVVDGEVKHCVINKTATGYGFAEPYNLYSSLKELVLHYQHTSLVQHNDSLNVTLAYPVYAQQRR
RUN DESCRIPTION: Transcreener KINASE Assay, kinase inhibition of p110δ/p85α
EXPERIMENTAL CONTEXT: read-out: PI3Kδ IC50
pIC50: −log10 of the molar value.
READOUT KIND: pIC50

INSERT INTO assay_data (smiles_notation, quantitative_readout) VALUES
  ('Nc1nc(N2CCC[C@H]2c2nn3ccc(Cl)c3c(=O)n2-c2ccccc2)c2cccn2n1', 6.92),
  ('O=c1c2c(Cl)ccn2nc([C@@H]2CCN2c2ncnc3[nH]cc(C4=NCCO4)c23)n1-c1ccccc1', 7.68),
  ('C[C@H]1CN(c2nc(N)ncc2Cl)[C@@H]1c1nn2ccc(Cl)c2c(=O)n1-c1ccccc1', 8.10),
  ('CC(=O)c1c[nH]c2ncnc(N3CC[C@H]3c3nn4ccc(Cl)c4c(=O)n3-c3ccccc3)c12', 8.22),
  ('O=c1c2c(F)ccn2nc([C@@H]2CCCN2c2ncnc3[nH]cnc23)n1-c1cccc(F)c1', 8.52),
  ('C[S@@+]([O-])c1c[nH]c2ncnc(N3C[C@@H](F)C[C@H]3c3nn4ccc(Cl)c4c(=O)n3-c3cccc(F)c3)c12', 8.05),
  ('N#Cc1c[nH]c2ncnc(N3CCC[C@H]3c3nn4ccc(Cl)c4c(=O)n3Cc3ccccn3)c12', 7.85);
